Listed here are compounds together with their documented melting point.

Before answering, review these 2 worked examples.
[[record]]
compound = "CON1C(C)(C)CC(OC(=O)c2cccc(C(=O)OC3CC(C)(C)N(OC)C(C)(C)C3)c2)CC1(C)C"
recorded_measurement = "99 to 101 °C"

[[record]]
compound = "CC(=Cc1cc(Br)ccc1O)[N+](=O)[O-]"
recorded_measurement = "95 to 97 °C"


input: Note down melting point recorded for CCc1nc2c(C)cc(C)nc2n1Cc1ccc2c(c1)CCc1ccccc1N2CC(=O)O
output: 114 to 115 °C

input: Note down melting point recorded for COc1ccc2[nH]cc([C@H]3CC[C@@H](N4CCN(c5cccc6[nH]ccc56)CC4)CC3)c2c1
output: 105 to 108 °C

input: Note down melting point recorded for NC(=O)c1sc(-n2cnc3cnccc32)cc1OCc1ccccc1C(F)(F)F
output: 226 to 227 °C

* * *

measured_metric: melting point

Before answering, review these 5 worked examples.
[[record]]
compound = "Cc1cccc(NC(c2ccc(OC(C)C)cc2)c2ccc3cccnc3c2O)n1 (stereo not given)"
recorded_measurement = "132 to 134 °C"

[[record]]
compound = "Clc1ccc(C(c2ccc(Cl)cc2)n2ncnn2)cc1"
recorded_measurement = "91 to 92 °C"

[[record]]
compound = "CCOC(=O)C1=C(C#N)NC(C)=C(C(=O)OCCOCc2ccccc2)C1c1cccc([N+](=O)[O-])c1 (stereo not given)"
recorded_measurement = "114 to 115 °C"

[[record]]
compound = "O=Cc1c(O)cccc1OCc1ccccc1C(=O)O"
recorded_measurement = "218 to 220 °C"

[[record]]
compound = "COc1cc2ncnc(N3CCc4c(C)cccc43)c2cc1OC"
recorded_measurement = "174 to 175 °C"


input: Note down melting point recorded for COc1ccc(OC)c2c(=O)c3ccccc3sc12
output: 201 to 202 °C

input: Note down melting point recorded for O=C(O)CCC(=O)c1ccc(-c2ccc(Cl)c(Cl)c2)cc1
output: 154 to 156 °C

input: Note down melting point recorded for O=C(COc1cc(C(=O)O)c(O)c2ccccc12)Nc1ccccc1
output: 165 to 166 °C

input: Note down melting point recorded for CC1(COC2CC3C4CCC5=CC(=O)C=CC5(C)C4(F)C(O)CC3(C)C2(O)C(=O)CCl)CO1 (stereo not given)
output: 193 to 236 °C

input: Note down melting point recorded for Cc1nc(Cl)c([N+](=O)[O-])c(NCCNC(=O)OC(C)(C)C)c1C
output: 110 to 112 °C

* * *

Listed here are compounds together with their documented melting point.

[[record]]
compound = "Cc1ccc(S(=O)(=O)c2ccc3c(c2)c(CCNC(=O)OC(C)(C)C)cn3C)cc1"
measured_metric = "melting point"
recorded_measurement = "144 to 148 °C"

[[record]]
compound = "COC(=O)c1[nH]c(=O)n(C(=O)NCCCN2CCN(c3ccccc3OC)CC2)c1-c1ccc(F)c(F)c1"
measured_metric = "melting point"
recorded_measurement = "122 to 124 °C"

[[record]]
compound = "C=CC(=O)OC12Oc3cc(C(C)C)ccc3C1(O)C(=O)c1ccccc12 (centres undefined)"
measured_metric = "melting point"
recorded_measurement = "95 to 97 °C"

[[record]]
compound = "O=C(O)Cc1cc(Cl)ccc1OCc1ccccc1"
measured_metric = "melting point"
recorded_measurement = "76 to 77.5 °C"


input: Note down melting point recorded for CC1(C)CC(O)CC(C)(C)N1OCc1ccccc1
output: 86 to 87 °C

input: Note down melting point recorded for CCC1OC(=O)CC(O)C(C)C(OC2OC(C)CC(N(C)C)C2O)C(CC=O)CC(C)C(=O)C=CC2(C)OC2C1C (centres undefined)
output: 128 to 130 °C

input: Note down melting point recorded for CCNC(=O)Nc1nccc(-c2ccncc2)n1
output: 204 to 207 °C

input: Note down melting point recorded for COC(=O)C(c1cccc(Br)c1)c1ncnc2cc(OC)c(OC)cc12 (centres undefined)
output: 167 to 168 °C

input: Note down melting point recorded for COc1c2c(cc3ccc(=O)oc13)CC(OC)O2 (centres undefined)
output: 131 to 132 °C

input: Note down melting point recorded for COc1cc2c(cc1C(F)(F)F)N(C(=O)Nc1ccc3c(ccn3Cc3ccncc3)c1)CC2
output: 215 to 218 °C

input: Note down melting point recorded for CC(C)(C)c1ccc(-c2nnc(-c3ccc(C(=O)O)cc3N)o2)cc1
output: 266 to 268 °C

input: Note down melting point recorded for C=CCN1C(=O)NCC1c1ccc(OC)c(OC2CC3CCC2C3)c1 (centres undefined)
output: 110 to 113 °C

input: Note down melting point recorded for O=C(NC1C(=O)N(CC2C3CC4CC(C3)CC2C4)c2ccccc2N(c2ccccc2)C1=O)Oc1ccccc1 (centres undefined)
output: 167 to 168 °C

input: Note down melting point recorded for Cc1cc2c(nc(C)n2CCc2ccccc2)c(N(Cc2ccccc2)Cc2ccccc2)n1
output: 124 to 126 °C

input: Note down melting point recorded for CC(C)(C)OC(=O)N1CCN(c2ccc(Nc3nc(N)c(C(=O)c4c(Cl)cccc4Cl)s3)cc2)CC1
output: 165 to 167 °C
